- EXPERIMENTAL SYSTEM: TEAD2 (Homo sapiens (Human))
- Sequence (Q15562 whole entry): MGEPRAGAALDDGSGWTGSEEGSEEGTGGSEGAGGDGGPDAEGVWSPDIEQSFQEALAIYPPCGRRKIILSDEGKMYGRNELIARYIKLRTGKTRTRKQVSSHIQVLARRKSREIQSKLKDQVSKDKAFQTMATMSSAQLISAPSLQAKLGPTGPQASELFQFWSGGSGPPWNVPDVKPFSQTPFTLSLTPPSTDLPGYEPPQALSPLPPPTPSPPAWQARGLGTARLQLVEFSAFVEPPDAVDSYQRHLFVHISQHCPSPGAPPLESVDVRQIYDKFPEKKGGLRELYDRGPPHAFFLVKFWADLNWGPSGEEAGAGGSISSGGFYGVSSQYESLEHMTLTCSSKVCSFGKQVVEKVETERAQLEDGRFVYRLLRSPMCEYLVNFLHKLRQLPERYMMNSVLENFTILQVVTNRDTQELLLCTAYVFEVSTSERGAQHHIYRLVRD
- ASSAY TEXT: CMP assay (CPM fluorescence detection of free CoA)
- Assay type: biochemical
- CONDITION DESCRIPTION: Table 3; unit inferred; read-out: TEAD2 palmitoylation IC50
ENDPOINT LABEL: IC50 (nM)

Query :: // IC50 lookup, key: `O=C(O)c1ccccc1Nc1ccc(Oc2ccc(C3CCCCC3)cc2Cl)nc1`
Result :: 380

Query :: Need IC50, item `COc1ccc(Nc2ccc(N(C)c3ccc(OC(F)(F)F)cc3)cc2F)c(C(=O)O)c1`
Result :: 1570

Query :: For the molecule shown here, `COc1ccc(Nc2ccc(N(C)c3ccc(C(F)(F)F)cc3)cc2)c(C(=O)O)c1` , give the reported IC50.
Result :: 1450

Query :: For the molecule `COc1ccc(Nc2ccc(N(C)c3ccc(C4CCC(C)(C)CC4)cc3)cc2)c(C(=O)O)c1` , what IC50 is on record?
Result :: 30

Query :: For the molecule shown here, `COc1ccc(Nc2ccc(N(C)c3ccc(C4CCCCC4)cc3)cc2C)c(C(=O)O)c1` , give the reported IC50.
Result :: 11

[a] COc1ccc(Nc2ccc(N(C)c3ccc(C4CCCCC4)cc3)cc2C2CC2)c(C(=O)O)c1
[b] COc1ccc(Nc2ccc(N(C)c3ccc(C)cc3)cc2)c(C(=O)O)c1
Query :: Two entries are listed, a and b . Which one carries the higher IC50? Write the label of whichever entry you select.
Result :: a

====

- EXPERIMENTAL SYSTEM: TEAD2 (Homo sapiens (Human))
- ASSAY TEXT: In vitro palmitoylation (TEAD2 autopalmitoylation, streptavidin blot)
- Assay type: biochemical
- CONDITION DESCRIPTION: compound at 10 μM; Table 3
ENDPOINT LABEL: inhibition at 10 µM (%)

[A] Cc1cc(N(C)c2ccc(C3CCCCC3)cc2)ccc1Nc1ccc(C(F)(F)F)cc1C(=O)O
[B] COc1ccc(Nc2ccc(Oc3ccc(C4CCCCC4)cc3Cl)nc2)c(C(=O)O)c1
Query :: // which entry has the larger inhibition at 10 µM value, A or B ? Please indicate the selected item by its label.
Result :: B
(B: 88%, A: 61%)

[1] COc1ccc(Nc2ccc(N(C)c3ccc(C4CCC4)cc3)cc2)c(C(=O)O)c1
[2] CN(c1ccc(Nc2cccc(C(=O)O)n2)cc1)c1ccc(C(F)(F)F)cc1
Query :: Given 1 and given 2 , which shows the smaller recorded inhibition at 10 µM? Respond with the label that goes with your answer.
Result :: 1

====

- EXPERIMENTAL SYSTEM: TEAD2 (Homo sapiens (Human))
- ASSAY TEXT: In vitro palmitoylation (TEAD2 autopalmitoylation, streptavidin blot)
- Format: biochemical
- CONDITION DESCRIPTION: compound at 10 μM; Table 2
ENDPOINT LABEL: inhibition at 10 µM (%)

Query :: Can you share its inhibition at 10 µM? I mean this compound: `O=C(O)c1cccnc1Nc1ccc2c(c1)N(Cc1ccc(C34CC5CC(CC(C5)C3)C4)cc1Cl)CC2`
Result :: 37

Query :: Need inhibition at 10 µM of `O=C(O)c1ccccc1Nc1cc(Nc2ccc(C34CC5CC(CC(C5)C3)C4)cc2Cl)cc(C(F)(F)F)c1` , thanks.
Result :: 50

Query :: Reported inhibition at 10 µM for O=C(O)C1CCCN1Cc1ccc(Nc2ccc(C34CC5CC(CC(C5)C3)C4)cc2Cl)cc1 (centres unmarked) : what is it?
Result :: 53

Query :: Could you share which inhibition at 10 µM value was measured for `CC(C)c1ccccc1-c1ccc(Nc2ccc(Nc3ccccc3C(=O)O)cc2)c(Cl)c1` ?
Result :: 52

Query :: Which inhibition at 10 µM is listed for `O=C(O)Cn1ncc2cc(Nc3ccc(C45CC6CC(CC(C6)C4)C5)cc3Cl)ccc21` ?
Result :: 62

Query :: Quick check: inhibition at 10 µM of `O=C(O)c1cccc(NC(=O)c2ccc(Nc3ccc(C45CC6CC(CC(C6)C4)C5)cc3)cc2)c1` ?
Result :: 99

[1] CN(c1ccc(CC(=O)Nc2ccccc2C(=O)O)cc1)c1ccc(C23CC4CC(CC(C4)C2)C3)cc1
[2] NC(Cc1ccc(Nc2ccc(C34CC5CC(CC(C5)C3)C4)cc2Cl)cc1)C(=O)O (centres unmarked)
Query :: Quick check, higher inhibition at 10 µM between 1 and 2 ? Identify your pick by its label.
Result :: 2
(2: 97%, 1: 67%)
